Experiment: melting temperature; fluorescence melt of hairpins on a sequencing array, two-state fit, raised by 9.35 °C to match UV melts
Settings: sodium 0.088 M
PARAMETER: Tm (°C)

- BIOSEQUENCE: "GGTCTGGGAAACCAGGCC ((.((((....)))).))"
  PARAMETER: "Tm"
  TEST VALUE: 56.9
- BIOSEQUENCE: "GGTCCCGAAAGGGCGACC ((((((....)))..)))"
  PARAMETER: "Tm"
  TEST VALUE: 46
- BIOSEQUENCE: "GCCAGGCGAAAGCCCCGC ((..(((....)))..))"
  PARAMETER: "Tm"
  TEST VALUE: 28.1
- BIOSEQUENCE: "GATCCATGTCTGGATC ((((((....))))))"
  PARAMETER: "Tm"
  TEST VALUE: 50.5
- BIOSEQUENCE: "GCGGAGCGAAAGCTAAGC ((..(((....)))..))"
  PARAMETER: "Tm"
  TEST VALUE: 54
- BIOSEQUENCE: "GCCTTCGAAAGAAAAGGC ((((((....)))..)))"
  PARAMETER: "Tm"
  TEST VALUE: 45.7
- BIOSEQUENCE: "GCTCGGCGAAAGCAGCGC ((.(.((....)).).))"
  PARAMETER: "Tm"
  TEST VALUE: 58.5
- BIOSEQUENCE: "GATCACATGTGTGATC ((((((....))))))"
  PARAMETER: "Tm"
  TEST VALUE: 57.2
- BIOSEQUENCE: "GTATTACGAAAGTACTAC (((.(((....))).)))"
  PARAMETER: "Tm"
  TEST VALUE: 32.7
- BIOSEQUENCE: "CGTGACCGGAAACGGACG (((..(((....))))))"
  PARAMETER: "Tm"
  TEST VALUE: 36.2
- BIOSEQUENCE: "GGGTTAGAAATAACCC ((((((....))))))"
  PARAMETER: "Tm"
  TEST VALUE: 53.1
- BIOSEQUENCE: "GAATTTGGAAACAAATCC (.(((((....))))).)"
  PARAMETER: "Tm"
  TEST VALUE: 29.2
- BIOSEQUENCE: "GGTCAGGGAAACCTGATC (.(((((....))))).)"
  PARAMETER: "Tm"
  TEST VALUE: 48.5
- BIOSEQUENCE: "GTCCACGAAAGTGGCGAC ((((((....)))..)))"
  PARAMETER: "Tm"
  TEST VALUE: 58.8
- BIOSEQUENCE: "CGATCGGAAACGATTCG ((((((....))).)))"
  PARAMETER: "Tm"
  TEST VALUE: 43.7
- BIOSEQUENCE: "GTGTGGGGAAACCCACGC (.(((((....))))).)"
  PARAMETER: "Tm"
  TEST VALUE: 58.8
- BIOSEQUENCE: "GGGCGCGGAAACGCACCC (((.(((....))).)))"
  PARAMETER: "Tm"
  TEST VALUE: 62.6
- BIOSEQUENCE: "GGCTATCGAAAGATTGCC (((.(((....))).)))"
  PARAMETER: "Tm"
  TEST VALUE: 55.7
- BIOSEQUENCE: "GCGTTGGCGAAAGCCCGC (((..(((....))))))"
  PARAMETER: "Tm"
  TEST VALUE: 57.3
- BIOSEQUENCE: "GCGCTGCGAAAGCACAGC ((..(((....)))..))"
  PARAMETER: "Tm"
  TEST VALUE: 49.9
- BIOSEQUENCE: "GTGAATACGAAAGTACAC (((..(((....))))))"
  PARAMETER: "Tm"
  TEST VALUE: 27.5
- BIOSEQUENCE: "GTGCCTGGAAACAGACAC (((.(((....))).)))"
  PARAMETER: "Tm"
  TEST VALUE: 46.9
- BIOSEQUENCE: "GTATCTGGAAACAGATGC (.(((((....))))).)"
  PARAMETER: "Tm"
  TEST VALUE: 46.9
- BIOSEQUENCE: "GAATATGAAAATATTC ((((((....))))))"
  PARAMETER: "Tm"
  TEST VALUE: 39.8
- BIOSEQUENCE: "GAAAACGAAAGTTTCTTC ((((((....)))..)))"
  PARAMETER: "Tm"
  TEST VALUE: 46.6

These data points were gathered from the array DNA melting data of Ke et al. (doi:10.1101/2024.01.08.574731).
